Structures can show the parent of a compound that is named as a salt.
READOUT NAME: melting point (°C)

Field: example entries. Status: answers known.
N#Cc1ccc(O[C@@H]2c3cccnc3C[C@H]2N2CCC[C@@H](N)C2)c(Cl)c1 (as salt: HCl) : 172
N#Cc1ccc(O[C@@H]2c3ncccc3C[C@H]2N2CCC[C@@H](N)C2)c(Cl)c1 (as salt: HCl) : 180

(A) N[C@@H]1CCCN([C@@H]2Cc3ccccc3[C@H]2Oc2cc3c(cc2Cl)NC(=O)CC3)C1 (as salt: HCl)
(B) CC(C)(N)C1CN([C@@H]2Cc3ccccc3[C@H]2Oc2ccc(C#N)cc2Cl)C1 (as salt: HCl)
Lookup: Would you kindly point out which of A and B has the smaller melting point figure? Kindly state the label of the option you pick.
Found: B
(B: 93 °C, A: 183.7 °C)
